assay: Caco-2 cell permeability assay; format: in vitro ADME, human; conditions: human, Caco-2, apical to basolateral, 60 min, 37° C.
Papp A→B at 60 min, 10 μM values, listed per item

Here is how some molecules turned out for Papp A→B at 60 min, 10 μM.
C[C@@H](NC(=O)N1C(=O)[C@H](Cc2ccnc(N)c2)[C@H]1C(=O)N(C)c1ccn(C)n1)C1CCCCC1 :: < 10 ×10⁻⁶ cm/s
CC[C@@H](NC(=O)N1C(=O)[C@H](Cc2cc(C)nc(N)c2)[C@H]1C(=O)N(C)c1ccnn1C)c1ccc(C)c(C)c1 :: < 10 ×10⁻⁶ cm/s
CN(C(=O)[C@@H]1[C@@H](Cc2ccnc(N)c2)C(=O)N1C(=O)N[C@@H](C1CCCCC1)C1CC1)c1ccn(C)n1 :: 11 to 30 ×10⁻⁶ cm/s
CC[C@@H](NC(=O)N1C(=O)[C@H](Cc2cc(C)nc(N)c2)[C@H]1C(=O)N(C)c1nccn1C)c1cc(F)ccc1F :: < 10 ×10⁻⁶ cm/s
CC[C@@H](NC(=O)N1C(=O)[C@H](Cc2ccnc(N)c2)[C@H]1C(=O)N(C)c1nccn1C)C1CCCCC1 :: < 10 ×10⁻⁶ cm/s
CC[C@@H](NC(=O)N1C(=O)[C@H](Cc2ccnc(N)c2)[C@H]1C(=O)N(C)c1nccn1C)c1ccc(C)nc1 :: < 10 ×10⁻⁶ cm/s
CC[C@@H](NC(=O)N1C(=O)[C@H](Cc2ccnc(N)c2)[C@H]1C(=O)N(C)c1nccn1C)c1ccccc1 :: < 10 ×10⁻⁶ cm/s
CC[C@@H](NC(=O)N1C(=O)[C@H](Cc2ccnc(N)c2)[C@H]1C(=O)N(C)c1nccn1C)c1cc(F)ccc1F :: < 10 ×10⁻⁶ cm/s
CC[C@@H](NC(=O)N1C(=O)[C@H](Cc2ccnc(N)c2)[C@H]1C(=O)N(C)c1ccnn1C)c1ccccc1 :: < 10 ×10⁻⁶ cm/s
CC[C@@H](NC(=O)N1C(=O)[C@H](Cc2cc(C)nc(NC)c2)[C@H]1C(=O)N(C)c1nccn1C)c1ccccc1 :: 11 to 30 ×10⁻⁶ cm/s

Continue with the next molecule.
**Query** Record request: Papp A→B at 60 min, 10 μM value, item `CC[C@@H](NC(=O)N1C(=O)[C@H](Cc2ccnc(N)c2)[C@H]1C(=O)N(C)c1nccn1C)c1ccccc1Cl`
**Result** < 10 ×10⁻⁶ cm/s

###

The following compounds have recorded IC50 on Factor XIa (Homo sapiens (Human), UniProt P03951).
Sequence (P03951 388-625): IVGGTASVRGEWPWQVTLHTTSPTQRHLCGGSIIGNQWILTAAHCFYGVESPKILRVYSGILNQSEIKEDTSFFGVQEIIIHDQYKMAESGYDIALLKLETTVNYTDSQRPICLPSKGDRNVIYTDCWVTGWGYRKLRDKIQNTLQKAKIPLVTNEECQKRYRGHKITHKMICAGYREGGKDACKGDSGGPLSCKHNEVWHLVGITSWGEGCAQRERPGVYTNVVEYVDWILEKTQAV
Sequence (P03951 19-387 partner): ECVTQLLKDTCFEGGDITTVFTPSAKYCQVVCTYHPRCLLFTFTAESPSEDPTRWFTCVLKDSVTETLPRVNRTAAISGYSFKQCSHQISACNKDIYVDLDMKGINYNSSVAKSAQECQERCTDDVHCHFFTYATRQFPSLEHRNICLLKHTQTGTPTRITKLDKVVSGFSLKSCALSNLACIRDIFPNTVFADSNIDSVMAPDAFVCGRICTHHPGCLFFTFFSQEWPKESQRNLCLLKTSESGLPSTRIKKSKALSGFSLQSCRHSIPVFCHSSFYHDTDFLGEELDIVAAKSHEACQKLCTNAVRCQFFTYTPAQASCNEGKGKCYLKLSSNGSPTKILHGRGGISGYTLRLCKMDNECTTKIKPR

Here is how some compounds turned out for IC50.
CN(C(=O)[C@@H]1[C@@H](Cc2ccnc(N)c2)C(=O)N1C(=O)NC(c1cccc(Cl)c1)C(F)(F)F)c1ccn(C)n1 (stereo in doubt) [Compound 1-38] :: < 10 nM
CC[C@@H](NC(=O)N1C(=O)[C@H](Cc2cc(C)nc(N)c2)[C@H]1C(=O)N(C)c1nccn1C)c1ccc(Cl)cc1 [Compound 1-105] :: 10 to 100 nM
CC[C@@H](NC(=O)N1C(=O)[C@H](Cc2ccnc(N)c2)[C@H]1C(=O)N(C)c1ccn(C)n1)c1cc(Cl)ccc1C [Compound 1-141] :: < 10 nM
CC[C@@H](NC(=O)N1C(=O)[C@H](Cc2ccnc(N)c2)[C@H]1C(=O)N(C)c1nccn1C)c1cc(C)c(F)c(C)c1 [Compound 1-195] :: < 10 nM
CC[C@@H](NC(=O)N1C(=O)[C@H](Cc2ccnc(N)c2)[C@H]1C(=O)N(C)c1nccn1C)c1cccc(C)c1 [Compound 1-80] :: < 10 nM

**Query** Write down the reported IC50 of C[C@@H](NC(=O)N1C(=O)[C@H](Cc2ccnc(N)c2)[C@H]1C(=O)N(C)c1ccn(C)n1)C1CCCCC1 [Compound 1-50] , test system: Factor XIa (Homo sapiens (Human), UniProt P03951).
**Result** 10 to 100 nM

**Query** Write down the reported IC50 of CC[C@@H](NC(=O)N1C(=O)[C@H](Cc2cc(C)nc(N)c2)[C@H]1C(=O)N(C)c1cnn(C)c1)c1ccc(C)c(F)c1 [Compound 1-172] , test system: Factor XIa (Homo sapiens (Human), UniProt P03951).
**Result** < 10 nM

**Query** Write down the reported IC50 of CC[C@@H](NC(=O)N1C(=O)[C@H](Cc2ccnc(N)c2)[C@H]1C(=O)N(C)c1ccn(C)n1)c1cc(C)c(F)c(C)c1 [Compound 1-203] , test system: Factor XIa (Homo sapiens (Human), UniProt P03951).
**Result** < 10 nM

**Query** Write down the reported IC50 of CC[C@@H](NC(=O)N1C(=O)[C@H](Cc2ccnc(N)c2)[C@H]1C(=O)N(C)c1cnsc1)c1ccccc1 [Compound 1-19] , test system: Factor XIa (Homo sapiens (Human), UniProt P03951).
**Result** < 10 nM

**Query** Write down the reported IC50 of CC[C@@H](NC(=O)N1C(=O)[C@H](Cc2ccnc(N)c2)[C@H]1C(=O)N(C)c1ccn(C)n1)c1ccc(C)c(Cl)c1 [Compound 1-129] , test system: Factor XIa (Homo sapiens (Human), UniProt P03951).
**Result** < 10 nM

**Query** Write down the reported IC50 of CC[C@@H](NC(=O)N1C(=O)[C@H](Cc2ccnc(N)c2)[C@H]1C(=O)N(C)c1cccs1)c1cccc(Cl)c1 [Compound 1-28] , test system: Factor XIa (Homo sapiens (Human), UniProt P03951).
**Result** < 10 nM

**Query** Write down the reported IC50 of CC[C@@H](NC(=O)N1C(=O)[C@H](Cc2ccnc(NC)c2)[C@H]1C(=O)N(C)c1ccn(C)n1)c1cccc(Cl)c1 [Compound 1-37] , test system: Factor XIa (Homo sapiens (Human), UniProt P03951).
**Result** 10 to 100 nM

**Query** Write down the reported IC50 of CCCC[C@@H](NC(=O)N1C(=O)[C@H](Cc2ccnc(N)c2)[C@H]1C(=O)N(C)c1ccn(C)n1)C1CCCCC1 [Compound 1-73] , test system: Factor XIa (Homo sapiens (Human), UniProt P03951).
**Result** 10 to 100 nM

###

The following compounds have recorded pIC50 on Factor XIa (Homo sapiens (Human)).
pIC50: −log10 of the molar value.

Here is how some compounds turned out for pIC50.
CC[C@@H](NC(=O)N1C(=O)[C@H](Cc2cc(C)nc(N)c2)[C@H]1C(=O)N(C)c1ccn(C)n1)c1ccc(C)c(Cl)c1 :: > 8.00
CC[C@@H](NC(=O)N1C(=O)[C@H](Cc2ccnc(N)c2)[C@H]1C(=O)N(C)c1ccn(C)n1)c1cc(F)c(F)c(F)c1 :: > 8.00
CC[C@@H](NC(=O)N1C(=O)[C@H](Cc2ccnc(N)c2)[C@H]1C(=O)N(C)c1nccn1C)c1ccc(C)c(C)c1C :: > 8.00
CC[C@@H](NC(=O)N1C(=O)[C@H](Cc2ccnc(N)c2)[C@H]1C(=O)N(C)c1ccn(C)n1)c1cccc(Cl)c1C :: > 8.00

**Query** Record request: pIC50 value, item `CC[C@@H](NC(=O)N1C(=O)[C@H](Cc2ccnc(N)c2)[C@H]1C(=O)N(C)c1nccn1C)C1CCOCC1`
**Result** 7.00 to 8.00

**Query** Record request: pIC50 value, item `CC[C@@H](NC(=O)N1C(=O)[C@H](Cc2ccnc(N)c2)[C@H]1C(=O)N(C)c1nccn1C)c1ccc(C)nc1C`
**Result** 7.00 to 8.00

###

biological target: Factor Xa (Homo sapiens (Human)); assay: Dose response assay for protease inhibitors: Factor Xa; format: biochemical; conditions: selectivity, Factor Xa over Factor XIa
Sequence (P00742 235-488): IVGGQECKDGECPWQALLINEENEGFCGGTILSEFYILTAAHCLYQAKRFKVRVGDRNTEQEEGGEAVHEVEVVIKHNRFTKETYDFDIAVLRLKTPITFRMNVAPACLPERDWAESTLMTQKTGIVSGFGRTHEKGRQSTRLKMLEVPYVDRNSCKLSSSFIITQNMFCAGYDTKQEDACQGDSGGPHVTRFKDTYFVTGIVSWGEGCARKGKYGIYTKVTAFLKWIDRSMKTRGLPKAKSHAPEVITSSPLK
Sequence (P00742 41-179 partner): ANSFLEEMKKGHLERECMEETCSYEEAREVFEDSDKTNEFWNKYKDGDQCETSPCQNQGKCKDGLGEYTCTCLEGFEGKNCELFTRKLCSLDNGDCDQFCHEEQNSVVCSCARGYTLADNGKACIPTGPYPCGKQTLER
QUANTITY_MEASURED: Ratio: FXa/FXIa

CC[C@@H](NC(=O)N1C(=O)[C@H](Cc2ccnc(N)c2)[C@H]1C(=O)N(C)c1ccn(C)n1)c1ccccc1 :: I (“I” indicates > 500)
CC[C@@H](NC(=O)N1C(=O)[C@H](Cc2ccnc(N)c2)[C@H]1C(=O)N(C)c1ccnn1C)c1ccccc1 :: I (“I” indicates > 500)

###

experiment: Caco-2 cell permeability assay; type: in vitro ADME, human; conditions: human, Caco-2, apical to basolateral, 60 min, 37° C.
Papp A→B at 60 min, 10 μM values, listed per item

CC[C@@H](NC(=O)N1C(=O)[C@H](Cc2cc(C)nc(N)c2)[C@H]1C(=O)N(C)c1cnn(C)c1)c1cccc(Cl)c1 :: < 10 ×10⁻⁶ cm/s

Continue with the next molecule.
**Query** Record request: Papp A→B at 60 min, 10 μM value, item `CC[C@@H](NC(=O)N1C(=O)[C@H](Cc2cc(C)nc(NC)c2)[C@H]1C(=O)N(C)c1ccnn1C)C1CCCCC1`
**Result** 11 to 30 ×10⁻⁶ cm/s

###

target: UniProtKB P00742; test: Dose response assay for protease inhibitors: Factor Xa; type: biochemical; details: selectivity, Factor Xa over Factor XIa
Excerpt: […]
QUANTITY_MEASURED: Ratio: FXa/FXIa

CC[C@@H](NC(=O)N1C(=O)[C@H](Cc2cc(C)nc(N)c2)[C@H]1C(=O)N(C)c1nccn1C)c1ccc(F)cc1 [Compound 1-106] :: I (“I” indicates > 500)
CC[C@@H](NC(=O)N1C(=O)[C@H](Cc2cc(C)nc(N)c2)[C@H]1C(=O)N(C)c1ccn(C)n1)c1cccc(F)c1F [Compound 1-146] :: I (“I” indicates > 500)
CC[C@@H](NC(=O)N1C(=O)[C@H](Cc2ccnc(N)c2)[C@H]1C(=O)N(C)c1nccn1C)c1ccc(C)nc1 [Compound 1-81] :: I (“I” indicates > 500)
